Origin of measurements: the supplement of paper PMC10567573

B1: IKZF1 (parent)
chain: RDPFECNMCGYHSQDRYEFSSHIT

Variants of: B1
Assay: protein stability index of a GFP-peptide fusion (GPS, HEK-293T) (PSI 1-6); higher = more stable;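 note: lentivirally expressed fusions sorted by FACS into six bins by GFP to DsRed ratio, PSI derived from sequencing read proportions per bin multiplied by bin number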
Conditions: c terminus: a fixed tail appended
Hi, to clarify the labels: class 1 covers protein stability index from 2 upward, class 0 covers anything below 2.

Input: Is the recorded value of protein stability index equal to or greater than 2 for this variant? `D15Y`
Output: class 0

Input: Is the recorded value of protein stability index equal to or greater than 2 for this variant? `Y11R`
Output: class 1

Input: Is the recorded value of protein stability index equal to or greater than 2 for this variant? `N7C`
Output: class 0

Input: Is the recorded value of protein stability index equal to or greater than 2 for this variant? `C6A`
Output: class 1

Input: Is the recorded value of protein stability index equal to or greater than 2 for this variant? `S20Y`
Output: class 0
